Below, each entry is listed alongside its reported Activity.
subject of test: Prostaglandin G/H synthase 1 (Ovis aries)
Sequence (whole entry): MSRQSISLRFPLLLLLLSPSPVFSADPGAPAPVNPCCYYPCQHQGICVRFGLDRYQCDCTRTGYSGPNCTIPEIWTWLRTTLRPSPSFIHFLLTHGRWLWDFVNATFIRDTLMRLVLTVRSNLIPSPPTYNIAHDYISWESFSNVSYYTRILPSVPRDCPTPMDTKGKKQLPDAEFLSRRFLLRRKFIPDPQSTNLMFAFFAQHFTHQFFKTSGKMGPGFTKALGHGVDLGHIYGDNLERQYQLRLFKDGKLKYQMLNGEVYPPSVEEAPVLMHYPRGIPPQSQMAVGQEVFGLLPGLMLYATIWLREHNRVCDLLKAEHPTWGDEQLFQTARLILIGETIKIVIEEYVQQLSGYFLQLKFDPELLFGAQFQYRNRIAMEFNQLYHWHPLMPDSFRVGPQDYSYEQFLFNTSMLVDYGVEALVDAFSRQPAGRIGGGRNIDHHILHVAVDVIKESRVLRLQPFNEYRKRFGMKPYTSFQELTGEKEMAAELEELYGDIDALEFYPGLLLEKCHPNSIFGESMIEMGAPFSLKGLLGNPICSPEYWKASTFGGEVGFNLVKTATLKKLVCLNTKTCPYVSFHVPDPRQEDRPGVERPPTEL
test description: Inhibition of ovine COX1 assessed as residual activity at 10 uM after 5 mins
Give the value in % but do not write % after it.

Recorded results for 10 molecules are shown here.
- O=C(O)C(Sc1nc(OCCc2ccccc2)cc(OCCc2ccccc2)n1)c1ccccc1 (configuration not stated): 72.2
- CCCCC(Sc1nc(OCCC2CCCC2)cc(OCCC2CCCC2)n1)C(=O)O (configuration not stated): 68.2
- CCCCC(Sc1nc(OCCc2ccc(C(F)(F)F)cc2)cc(OCCc2ccc(C(F)(F)F)cc2)n1)C(=O)O (configuration not stated): 54.4
- CCCCC(Sc1nc(OCCCc2ccccc2)cc(OCCCc2ccccc2)n1)C(=O)O (configuration not stated): 78.8
- CCCCC(Sc1nc(OCCc2ccc(OC)cc2)cc(OCCc2ccc(OC)cc2)n1)C(=O)O (configuration not stated): 72.8
- CCCCC(Sc1nc(OCc2ccccc2)cc(OCc2ccccc2)n1)C(=O)O (configuration not stated): 88.9
- CCCCC(Sc1nc(OCCc2ccc([N+](=O)[O-])cc2)cc(OCCc2ccc([N+](=O)[O-])cc2)n1)C(=O)O (configuration not stated): 82.1
- CCCCC(Sc1nc(OCCc2ccc(C)cc2)cc(OCCc2ccc(C)cc2)n1)C(=O)O (configuration not stated): 57.2
- O=C(O)CSc1nc(OCCc2ccccc2)cc(OCCc2ccccc2)n1: 91.8
- CCCCC(Sc1nc(OCCC2CC2)cc(OCCC2CC2)n1)C(=O)O (configuration not stated): 97.7

Test system Prostaglandin G/H synthase 1 (Ovis aries); read-out Activity; what value for CCCC[C@@H](Sc1nc(OCCc2ccccc2)cc(OCCc2ccccc2)n1)C(=O)O ? 73.9

Test system Prostaglandin G/H synthase 1 (Ovis aries); read-out Activity; what value for CCCCC(Sc1nc(OCCC(C)C)cc(OCCC(C)C)n1)C(=O)O (configuration not stated) ? 72.4
